# System: Human immunodeficiency virus 1
# protocol: Tested for in vitro therapeutic index as the ratio of IC50 to EC50 in acutely infected H9 Lymphocytes
# Assay type: organism-based
# experimentalParameters: Human immunodeficiency virus 1
For each record, write down the corresponding TI.
Numbers only.

INSERT INTO measurements (compound, measurementtarget, readouttype, numericreadout) VALUES
  ('CC(=O)OC1c2c(ccc3ccc(=O)oc23)OC(C)(C)C1OC(C)=O (stereo in doubt; 8)', 'Human immunodeficiency virus 1', 'TI', 0.4),
  ('CC1(C)Oc2ccc3ccc(=O)oc3c2[C@@H](OC(=O)C23CCC(C)(C(=O)O2)C3(C)C)[C@H]1OC(=O)C12CCC(C)(C(=O)O1)C2(C)C (mixture of isomers; 16)', 'Human immunodeficiency virus 1', 'TI', 136719),
  ('CC(C)CC(=O)OC1c2c(ccc3ccc(=O)oc23)OC(C)(C)C1OC(=O)CC(C)C (stereo in doubt; 42)', 'Human immunodeficiency virus 1', 'TI', 3),
  ('CC(=O)OC1c2c(ccc3ccc(=O)oc23)OC(C)(C)C1OC(C)=O (stereo in doubt; 37)', 'Human immunodeficiency virus 1', 'TI', 3);

# context switch: different compound, same TI
Annotate the compound CC1(C)Oc2ccc3ccc(=O)oc3c2[C@@H](OC(=O)C23CCC(C)(C(=O)O2)C3(C)C)[C@H]1OC(=O)C12CCC(C)(C(=O)O1)C2(C)C (mixture of isomers; 17) with its measured TI.
1.1
